STUDY SYSTEM: T1, Aβ1-42 polypeptide (human)
T1 construct: Synthetic peptide; also called Aβ1-42 monomer; Aβ monomer
T1 sequence (peptide, as listed by the source): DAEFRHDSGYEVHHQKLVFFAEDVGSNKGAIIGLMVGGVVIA
PROTOCOL: SPR, Biacore T200, antibody captured on Protein A chip, human Aβ antigen as analyte
MEASURED PROPERTY: koff (s⁻¹)
Please reply with the bare figure in s⁻¹ and do not write the unit itself.

Worked examples follow.
066-4.26.14H2L2 (antibody, human IgG1, V domains shown, Humanized full-length antibody; human IgG1 heavy constant and human kappa light constant (vectors pGS003-hIgG1CH, pGS003-hIgKCL)) VH: EVQLVESGGGLVKPGGSLRLSCAASGFTFRSYAMSWVRQTPEKRLEWVASISTTSNTYYPDSVKGRFTTSRDNAKNSVYLQMSSLRAEDTAVYYCGRGVITNQAWFAYWGQGTTVTVSS VL: DIVLTQSPATLSVSPGERATLSCRASQSISNNLHWYQQKPGQAPRLLIKYASQSISGIPARFSGSGSGTDFTLTISSLQSEDFAVYFCQQSNSWPLTFGGGTKVEIKR :: 0.000433
066-4.26.14H5L1 (antibody, human IgG1, V domains shown, Humanized full-length antibody; human IgG1 heavy constant and human kappa light constant (vectors pGS003-hIgG1CH, pGS003-hIgKCL)) VH: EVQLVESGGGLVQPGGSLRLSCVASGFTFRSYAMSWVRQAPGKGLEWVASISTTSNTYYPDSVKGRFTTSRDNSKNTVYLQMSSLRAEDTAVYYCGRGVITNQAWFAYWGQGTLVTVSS VL: DIVLTQSPATLSVSPGERVTLSCRASQSISNNLHWYQQKSGQAPRLLIKYASQSISGIPSRFSGSGSGTDFTLTISSLQSEDFAVYFCQQSNSWPLTFGGGTQVEIKR :: 0.000469

Continue with the binder presented below.
What value of koff has been reported for the following binder? 066-4.26.14H2L3 (antibody, human IgG1, V domains shown, Humanized full-length antibody; human IgG1 heavy constant and human kappa light constant (vectors pGS003-hIgG1CH, pGS003-hIgKCL)) VH: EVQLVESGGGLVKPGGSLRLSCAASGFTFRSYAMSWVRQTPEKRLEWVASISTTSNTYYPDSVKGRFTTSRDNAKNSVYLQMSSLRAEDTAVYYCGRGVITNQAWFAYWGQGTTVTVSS VL: DIVLTQSPDFQSVTPKEKVTISCRASQSISNNLHWYQQKPDQSPKLLIKYASQSISGIPSRFSGSGSGTDFTLTINSLEAEDAAAYFCQQSNSWPLTFGPGTKVEIKR
0.000472
